Test system: KRAS PDC multicell spheroid viability
Test: Anticancer human tumor 521955-158-R6-J3-PDC patient-derived pancreatic carcinoma cell line growth inhibition [KRAS2]
Conditions: curve of first compound; second compound 0.0316 µM
From the text: Multicellular complex tumor spheroid response to RAS pathway inhibitors in combination with a targeted agents in patient-derived cell lines with oncogenic KRAS variants from multiple cancer types A high-throughput screen of multi-cell type tumor spheroids was designed to identify active combinations of targeted small molecules and KRAS pathway inhibitors. […] Compounds. […] If the clinical Cmax for an agent had not been determined, the highest concentration tested was 10 microM. […]
value_kind: pIC50
Answers are plain numbers, as −log10 of the molar value.

Ask | Tell me measured pIC50 for CC1(C)CCC(CN2CCN(c3ccc(C(=O)NS(=O)(=O)c4ccc(NCC5CCOCC5)c([N+](=O)[O-])c4)c(Oc4cnc5[nH]ccc5c4)c3)CC2)=C(c2ccc(Cl)cc2)C1 + C=CC(=O)N1CCN(c2nc(OCC3CCCN3C)nc3c2CCN(c2cccc4cccc(C)c24)C3)CC1CC#N please.
Reply | 5.41

---

test system: KRAS PDC multicell spheroid viability; assay: Anticancer human tumor 521955-158-R6-J3-PDC cell line growth inhibition [KRAS2]; settings: second compound 10 µM; first compound 0.01 µM; active means viability on the fitted dose curve at most 10% of control; inactive means the rest;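 note: drug exposure lasted seven days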
Mark one answer only. Choices: 1.0 (active), 0.0 (inactive)

compound: CC1COCCN1c1cc(-c2ccnn2C)c2ccnc(-c3ccn[nH]3)c2n1 (stereo not drawn) + CNCc1ccccc1-c1csc(C(C)Nc2nc(C)nc3cc(OC)c(OC)cc23)c1
label_value: 1.0
//
compound: CN(C)C/C=C/C(=O)Nc1cc2c(Nc3ccc(F)c(Cl)c3)ncnc2cc1O[C@H]1CCOC1 + CC1OCC2(CCN(c3cnc(Sc4ccnc(N)c4Cl)c(N)n3)CC2)C1N
label_value: 0.0

Attention now turns to another entry.
Ask | Name the outcome recorded for CCN1CCN(Cc2ccc(Nc3ncc(F)c(-c4cc(F)c5nc(C)n(C(C)C)c5c4)n3)nc2)CC1 + C=CC(=O)N1CCN(c2nc(=O)n(-c3c(C)ccnc3C(C)C)c3nc(-c4c(O)cccc4F)c(F)cc23)C(C)C1 in the assay.
Reply | 0.0

---

test system: KRAS PDC multicell spheroid viability; assay: Anticancer human tumor 521955-158-R6-J3-PDC cell line growth inhibition [KRAS2]; conditions: second compound 10 µM; first compound 0.316 µM; active means viability on the fitted dose curve at most 10% of control; inactive means the rest;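 note: drug exposure lasted seven days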
Mark one answer only. Choices: active, inactive

Below are worked cases with known answers.
molecule: COc1cc(Nc2ncc3c(n2)-c2ccc(Cl)cc2C(c2c(F)cccc2OC)=NC3)ccc1C(=O)O + CC1OCC2(CCN(c3cnc(Sc4ccnc(N)c4Cl)c(N)n3)CC2)C1N
experimental_target: KRAS PDC multicell spheroid viability
label_value: inactive
--
molecule: CC(=O)OC12COC1CC(O)C1(C)C(=O)C(O)C3=C(C)C(OC(=O)C(O)C(NC(=O)OC(C)(C)C)c4ccccc4)CC(O)(C(OC(=O)c4ccccc4)C21)C3(C)C (stereo unspecified) + CC1OCC2(CCN(c3cnc(Sc4ccnc(N)c4Cl)c(N)n3)CC2)C1N
experimental_target: KRAS PDC multicell spheroid viability
label_value: inactive
--
molecule: CCN1CCN(Cc2ccc(Nc3ncc(F)c(-c4cc(F)c5nc(C)n(C(C)C)c5c4)n3)nc2)CC1 + CNCc1ccccc1-c1csc(C(C)Nc2nc(C)nc3cc(OC)c(OC)cc23)c1
experimental_target: KRAS PDC multicell spheroid viability
label_value: active
--
molecule: CC(C)NCC(C(=O)N1CCN(c2ncnc3c2C(C)CC3O)CC1)c1ccc(Cl)cc1 (stereo unspecified) + CC1OCC2(CCN(c3cnc(Sc4ccnc(N)c4Cl)c(N)n3)CC2)C1N
experimental_target: KRAS PDC multicell spheroid viability
label_value: inactive
--
molecule: COc1cc2nccc(Oc3ccc(NC(=O)C4(C(=O)Nc5ccc(F)cc5)CC4)cc3)c2cc1OC + CNCc1ccccc1-c1csc(C(C)Nc2nc(C)nc3cc(OC)c(OC)cc23)c1
experimental_target: KRAS PDC multicell spheroid viability
label_value: active
--
molecule: CC1COCCN1c1cc(-c2ccnn2C)c2ccnc(-c3ccn[nH]3)c2n1 (stereo unspecified) + C=CC(=O)N1CCN(c2nc(=O)n(-c3c(C)ccnc3C(C)C)c3nc(-c4c(O)cccc4F)c(F)cc23)C(C)C1
experimental_target: KRAS PDC multicell spheroid viability
label_value: inactive
--
molecule: CCNC(=O)CC1N=C(c2ccc(Cl)cc2)c2cc(OC)ccc2-n2c(C)nnc21 (stereo unspecified) + COc1cc2nc(C)nc(NC(C)c3cc(N)cc(C(F)(F)F)c3)c2cc1OC1CCOC1
experimental_target: KRAS PDC multicell spheroid viability
label_value: inactive
--
molecule: CC(=O)OC12COC1CC(O)C1(C)C(=O)C(O)C3=C(C)C(OC(=O)C(O)C(NC(=O)OC(C)(C)C)c4ccccc4)CC(O)(C(OC(=O)c4ccccc4)C21)C3(C)C (stereo unspecified) + CNCc1ccccc1-c1csc(C(C)Nc2nc(C)nc3cc(OC)c(OC)cc23)c1
experimental_target: KRAS PDC multicell spheroid viability
label_value: active
--
molecule: CC1COCCN1c1cc(-c2ccnn2C)c2ccnc(-c3ccn[nH]3)c2n1 (stereo unspecified) + CC1OCC2(CCN(c3cnc(Sc4ccnc(N)c4Cl)c(N)n3)CC2)C1N
experimental_target: KRAS PDC multicell spheroid viability
label_value: inactive
--
molecule: CC(C)NCC(C(=O)N1CCN(c2ncnc3c2C(C)CC3O)CC1)c1ccc(Cl)cc1 (stereo unspecified) + COc1cc2nc(C)nc(NC(C)c3cc(N)cc(C(F)(F)F)c3)c2cc1OC1CCOC1
experimental_target: KRAS PDC multicell spheroid viability
label_value: inactive

Attention now turns to another entry.
Ask | Name the outcome recorded for COc1cc2nccc(Oc3ccc(NC(=O)C4(C(=O)Nc5ccc(F)cc5)CC4)cc3)c2cc1OC + COc1cc2nc(C)nc(NC(C)c3cc(N)cc(C(F)(F)F)c3)c2cc1OC1CCOC1 in the assay.
Reply | inactive

---

tested on: KRAS PDC multicell spheroid viability; experiment: Anticancer human tumor 521955-158-R6-J3-PDC cell line growth inhibition [KRAS2]; conditions: second compound 1 µM; first compound 1 µM; stronger effect = lower value;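 note: drug exposure lasted seven days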;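 for viability, T/C: 100% = DMSO vehicle wells and lower means fewer viable cells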
Consider the cut-off 70%. If the recorded viability, T/C is strictly smaller, the label is Met; if not, the label is Not met.

compound: CC1COCCN1c1cc(-c2ccnn2C)c2ccnc(-c3ccn[nH]3)c2n1 (stereo not given) + C=CC(=O)N1CCN(c2nc(OCC3CCCN3C)nc3c2CCN(c2cccc4cccc(C)c24)C3)CC1CC#N
label_value: Met
--
compound: COc1cc(Nc2ncc3c(n2)-c2ccc(Cl)cc2C(c2c(F)cccc2OC)=NC3)ccc1C(=O)O + C=CC(=O)N1CCN(c2nc(OCC3CCCN3C)nc3c2CCN(c2cccc4cccc(C)c24)C3)CC1CC#N
label_value: Not met

Ask | I'd appreciate it if you could check whether COC(=O)c1ccc2c(C(=Nc3ccc(N(C)C(=O)CN4CCN(C)CC4)cc3)c3ccccc3)c(O)[nH]c2c1 + C=CC(=O)N1CCN(c2nc(=O)n(-c3c(C)ccnc3C(C)C)c3nc(-c4c(O)cccc4F)c(F)cc23)C(C)C1 has viability, T/C smaller than 70%.
Reply | Not met

Ask | I'd appreciate it if you could check whether CC1OCC2(CCN(c3cnc(Sc4ccnc(N)c4Cl)c(N)n3)CC2)C1N (stereo not given) + COc1cc2nc(C)nc(NC(C)c3cc(N)cc(C(F)(F)F)c3)c2cc1OC1CCOC1 has viability, T/C smaller than 70%.
Reply | Not met

---

For each record, write down the corresponding viability, T/C.
tested on: KRAS PDC multicell spheroid viability; assay: Anticancer human tumor 521955-158-R6-J3-PDC cell line growth inhibition [KRAS2]; conditions: second compound 3.16 µM; first compound 10 µM; stronger effect = lower value;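 note: drug exposure lasted seven days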;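 for viability, T/C: 100% = DMSO vehicle wells and lower means fewer viable cells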
Give bare numbers, in %.

Please review the following examples before continuing.
compound: COc1cc2nccc(Oc3ccc(NC(=O)C4(C(=O)Nc5ccc(F)cc5)CC4)cc3)c2cc1OC + CC1OCC2(CCN(c3cnc(Sc4ccnc(N)c4Cl)c(N)n3)CC2)C1N
experimental_target: KRAS PDC multicell spheroid viability
value_kind: viability, T/C
test_result: 81.6
--
compound: COc1cc(Nc2ncc3c(n2)-c2ccc(Cl)cc2C(c2c(F)cccc2OC)=NC3)ccc1C(=O)O + C=CC(=O)N1CCN(c2nc(=O)n(-c3c(C)ccnc3C(C)C)c3nc(-c4c(O)cccc4F)c(F)cc23)C(C)C1
experimental_target: KRAS PDC multicell spheroid viability
value_kind: viability, T/C
test_result: 79
--
compound: COC(=O)c1ccc2c(C(=Nc3ccc(N(C)C(=O)CN4CCN(C)CC4)cc3)c3ccccc3)c(O)[nH]c2c1 + C=CC(=O)N1CCN(c2nc(OCC3CCCN3C)nc3c2CCN(c2cccc4cccc(C)c24)C3)CC1CC#N
experimental_target: KRAS PDC multicell spheroid viability
value_kind: viability, T/C
test_result: 0.76
--
compound: CC1(C)CCC(CN2CCN(c3ccc(C(=O)NS(=O)(=O)c4ccc(NCC5CCOCC5)c([N+](=O)[O-])c4)c(Oc4cnc5[nH]ccc5c4)c3)CC2)=C(c2ccc(Cl)cc2)C1 + CC1OCC2(CCN(c3cnc(Sc4ccnc(N)c4Cl)c(N)n3)CC2)C1N
experimental_target: KRAS PDC multicell spheroid viability
value_kind: viability, T/C
test_result: 13.1
--
compound: CCNC(=O)CC1N=C(c2ccc(Cl)cc2)c2cc(OC)ccc2-n2c(C)nnc21 (stereo not given) + COc1cc2nc(C)nc(NC(C)c3cc(N)cc(C(F)(F)F)c3)c2cc1OC1CCOC1
experimental_target: KRAS PDC multicell spheroid viability
value_kind: viability, T/C
test_result: 75.4

Answer for every listed entry: what is its viability, T/C? The entries follow.
1. COc1cc(Nc2ncc3c(n2)-c2ccc(Cl)cc2C(c2c(F)cccc2OC)=NC3)ccc1C(=O)O + CNCc1ccccc1-c1csc(C(C)Nc2nc(C)nc3cc(OC)c(OC)cc23)c1
2. CC1OCC2(CCN(c3cnc(Sc4ccnc(N)c4Cl)c(N)n3)CC2)C1N (stereo not given) + C=CC(=O)N1CCN(c2nc(OCC3CCCN3C)nc3c2CCN(c2cccc4cccc(C)c24)C3)CC1CC#N
3. Cn1nccc1Nc1nccc(-c2cc3c(s2)C(C)(C)N(CCN2CCOCC2)C3=O)n1 + COc1cc2nc(C)nc(NC(C)c3cc(N)cc(C(F)(F)F)c3)c2cc1OC1CCOC1
4. COc1cc2nccc(Oc3ccc(NC(=O)C4(C(=O)Nc5ccc(F)cc5)CC4)cc3)c2cc1OC + C=CC(=O)N1CCN(c2nc(=O)n(-c3c(C)ccnc3C(C)C)c3nc(-c4c(O)cccc4F)c(F)cc23)C(C)C1
5. CCNC(=O)CC1N=C(c2ccc(Cl)cc2)c2cc(OC)ccc2-n2c(C)nnc21 (stereo not given) + CC1OCC2(CCN(c3cnc(Sc4ccnc(N)c4Cl)c(N)n3)CC2)C1N

Reply |
[2.86, 23.7, 45.8, 90.8, 53.3]
